Hepatotoxicity (acute) reference
- MEASUREMENT_CONTEXT: human, serum;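 also: acute human liver injury from clinical signs plus serum ALT or AST above 6 N or alkaline phosphatase above 1.7 N, covering cytolytic, cholestatic and mixed forms, value counts references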
Provide a numeric answer; units are not to be included.

# COMPOUND, Hepatotoxicity (acute)
measured = [
    ("CC12CCC(CC1=O)C2(C)C (centres undefined) [CAMPHOR]", 1),
    ("CC(C)Cc1ccc(C(C)C(=O)O)cc1 (centres undefined) [IBUPROFEN]", 20),
    ("COC(=O)C[C@](O)(CCCC(C)(C)O)C(=O)O[C@@H]1C(OC)=C[C@]23CCCN2CCc2cc4c(cc2[C@H]13)OCO4 [OMACETAXINE MEPESUCCINATE]", 0),
]

Using the record for CS(=O)(=O)c1ccc2c(c1)N(CCCN1CCC(C(N)=O)CC1)c1ccccc1S2 [METOPIMAZINE] , report its Hepatotoxicity (acute).
1

Using the record for CCOC(OCC)C(=O)OCC(=O)[C@]1(O)Cc2c(O)c3c(c(O)c2[C@@H](O[C@H]2C[C@H](N)[C@H](O)[C@H](C)O2)C1)C(=O)c1c(OC)cccc1C3=O [DETORUBICIN] , report its Hepatotoxicity (acute).
0

Using the record for N[C@@H](Cc1ccc(O)c(O)c1)C(=O)O [LEVODOPA] , report its Hepatotoxicity (acute).
4
